Please provide measured IC50 for the entries that follow.
# tgt: recombinant GST-tagged MDM2 (Homo sapiens, UniProt Q00987)
# Sequence (Q00987 whole entry): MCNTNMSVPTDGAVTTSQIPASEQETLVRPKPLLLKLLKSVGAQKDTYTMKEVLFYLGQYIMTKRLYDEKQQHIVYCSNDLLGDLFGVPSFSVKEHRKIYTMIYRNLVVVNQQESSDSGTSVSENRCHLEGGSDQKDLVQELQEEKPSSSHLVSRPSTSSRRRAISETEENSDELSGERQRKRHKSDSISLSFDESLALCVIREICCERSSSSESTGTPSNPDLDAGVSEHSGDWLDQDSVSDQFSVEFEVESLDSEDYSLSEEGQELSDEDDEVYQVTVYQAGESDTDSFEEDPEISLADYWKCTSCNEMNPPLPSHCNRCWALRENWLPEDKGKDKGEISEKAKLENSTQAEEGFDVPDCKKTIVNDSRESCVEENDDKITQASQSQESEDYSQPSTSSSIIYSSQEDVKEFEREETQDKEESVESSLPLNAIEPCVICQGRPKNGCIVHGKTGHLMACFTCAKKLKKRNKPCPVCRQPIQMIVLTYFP
# runDescription: HTRF assay of interaction between p53 peptide and GST-tagged MDM2
# recordedConditions: inhibition of GST-MDM2 (160 ng/ml) binding to biotinylated p53-peptide
Answers are plain numbers, in nM.

Some molecules with known IC50 results, for comparison:
moleculeSmiles: CCOc1cc(Cl)c(S(C)(=O)=O)cc1C1=N[C@@](C)(c2ccc(Cl)cc2)[C@@](C)(c2ccc(Cl)cc2)N1C(=O)N1CCNC(=O)C1
tgt: recombinant GST-tagged MDM2 (Homo sapiens, UniProt Q00987)
reportedMetric: IC50
obsValue: 5.7
--
moleculeSmiles: CCOc1cc(Cl)c(S(=O)(=O)NC(C)(C)C)cc1C1=N[C@@](C)(c2ccc(Cl)cc2)[C@@](C)(c2ccc(Cl)cc2)N1C(=O)N1CCC(N2CCNC(=O)CC2)CC1
tgt: recombinant GST-tagged MDM2 (Homo sapiens, UniProt Q00987)
reportedMetric: IC50
obsValue: 14.5

Could you now consider this next molecule?
What measured IC50 goes with CCOc1cc(Cl)c(S(C)(=O)=O)cc1C1=N[C@@](C)(c2ccc(Cl)cc2)[C@@](C)(c2ccc(Cl)cc2)N1C(=O)N1CCC2(CCN(CC(N)=O)CC2)CC1 ?
5.8
